# credit: paper PMC7774954

Answer each item with its documented BI.
- Test system: 266 human PDZ domains (PDZome)
- Assay method text: Holdup assay (chromatographic retention, PDZome-binding profile, BI)
- Design: key: binding intensity: 0.00 = no binding, 1.00 = maximal binding
- Conditions: PDZ domain MPDZ-4
*1 amine or outer side, *2 acyl side, *3 side chain or, on linkers, in order; H or OH if unused. Where a SMILES comes first, the peptide text is derived from it. The star is where a group is joined. X1 = O=C(CCCC[C@@H]1SC[C@@H]2NC(=O)N[C@@H]21)NCCCOCCOCCOCCCN*; Suc = O=C(CCC(=O)[*:2])[*:1]

Measured BI, CC[C@H](C)[C@H](NC(=O)[C@H](CCC(N)=O)NC(=O)[C@@H](NC(=O)[C@H](Cc1c[nH]cn1)NC(=O)[C@H](CCC(N)=O)NC(=O)[C@H](CC(=O)O)NC(=O)[C@H](CCC(=O)O)NC(=O)[C@H](CC(=O)O)NC(=O)CCC(=O)NCCCOCCOCCOCCCNC(=O)CCCC[C@@H]1SC[C@@H]2NC(=O)N[C@@H]21)[C@@H](C)O)C(=O)N[C@H](C(=O)N[C@@H](CCCNC(=N)N)C(=O)N[C@H](C(=O)O)C(C)C)[C@@H](C)O [PTEN_KR] ({X1-Suc}-DEDQHTQITRV-OH) : -0.021

Sure, the documented BI for CC[C@H](C)[C@H](NC(=O)[C@H](CCC(N)=O)NC(=O)[C@@H](NC(=O)[C@H](Cc1c[nH]cn1)NC(=O)[C@H](CCC(N)=O)NC(=O)[C@H](CC(=O)O)NC(=O)[C@H](CCC(=O)O)NC(=O)[C@H](CC(=O)O)NC(=O)CCC(=O)NCCCOCCOCCOCCCNC(=O)CCCC[C@@H]1SC[C@@H]2NC(=O)N[C@@H]21)[C@@H](C)O)C(=O)N[C@H](C(=O)N[C@@H](CCCCNC(C)=O)C(=O)N[C@H](C(=O)O)C(C)C)[C@@H](C)O is 0.029

The molecule CC[C@H](C)[C@H](NC(=O)[C@H](CCC(N)=O)NC(=O)[C@@H](NC(=O)[C@H](Cc1c[nH]cn1)NC(=O)[C@H](CCC(N)=O)NC(=O)[C@H](CC(=O)O)NC(=O)[C@H](CCC(=O)O)NC(=O)[C@H](CC(=O)O)NC(=O)[C@H](Cc1ccccc1)NC(=O)[C@@H]1CCCN1C(=O)CCC(=O)NCCCOCCOCCOCCCNC(=O)CCCC[C@@H]1SC[C@@H]2NC(=O)N[C@@H]21)[C@@H](C)O)C(=O)N[C@H](C(=O)N[C@@H](CCCCN)C(=O)N[C@H](C(=O)O)C(C)C)[C@@H](C)O [PTEN_13] ({X1-Suc}-PFDEDQHTQITKV-OH) showed BI equal to 0.035

--- query ---
For CC[C@H](C)[C@H](NC(=O)[C@H](CCC(N)=O)NC(=O)[C@@H](NC(=O)[C@H](Cc1c[nH]cn1)NC(=O)[C@H](CCC(N)=O)NC(=O)[C@H](CC(=O)O)NC(=O)[C@H](CCC(=O)O)NC(=O)[C@H](CC(=O)O)NC(=O)CCC(=O)NCCCOCCOCCOCCCNC(=O)CCCC[C@@H]1SC[C@@H]2NC(=O)N[C@@H]21)[C@@H](C)O)C(=O)N[C@H](C(=O)N[C@@H](CCCCN)C(=O)N[C@H](C(=O)O)C(C)C)[C@@H](C)O the molecule record lists BI as -0.037

###

Exercise: for every item that follows, state its recorded BI.
- System: 266 human PDZ domains (PDZome)
- Assay method text: Holdup assay (chromatographic retention, PDZome-binding profile, BI)
- Parameters: key: binding intensity: 0.00 = no binding, 1.00 = maximal binding
- Conditions: PDZ domain MPP1-1
*1 amine or outer side, *2 acyl side, *3 side chain or, on linkers, in order; H or OH if unused. Where a SMILES comes first, the peptide text is derived from it. The star is where a group is joined. X1 = O=C(CCCC[C@@H]1SC[C@@H]2NC(=O)N[C@@H]21)NCCCOCCOCCOCCCN*; Suc = O=C(CCC(=O)[*:2])[*:1]
Numbers only.

Note to self: BI recorded for CC[C@H](C)[C@H](NC(=O)[C@H](CCC(N)=O)NC(=O)[C@@H](NC(=O)[C@H](Cc1c[nH]cn1)NC(=O)[C@H](CCC(N)=O)NC(=O)[C@H](CC(=O)O)NC(=O)[C@H](CCC(=O)O)NC(=O)[C@H](CC(=O)O)NC(=O)CCC(=O)NCCCOCCOCCOCCCNC(=O)CCCC[C@@H]1SC[C@@H]2NC(=O)N[C@@H]21)[C@@H](C)O)C(=O)N[C@H](C(=O)N[C@@H](CCCCNC(C)=O)C(=O)N[C@H](C(=O)O)C(C)C)[C@@H](C)O [PTEN_Ac] was -0.054

BI reading for CC[C@H](C)[C@H](NC(=O)[C@H](CCC(N)=O)NC(=O)[C@@H](NC(=O)[C@H](Cc1c[nH]cn1)NC(=O)[C@H](CCC(N)=O)NC(=O)[C@H](CC(=O)O)NC(=O)[C@H](CCC(=O)O)NC(=O)[C@H](CC(=O)O)NC(=O)CCC(=O)NCCCOCCOCCOCCCNC(=O)CCCC[C@@H]1SC[C@@H]2NC(=O)N[C@@H]21)[C@@H](C)O)C(=O)N[C@H](C(=O)N[C@@H](CCCNC(=N)N)C(=O)N[C@H](C(=O)O)C(C)C)[C@@H](C)O [PTEN_KR] ({X1-Suc}-DEDQHTQITRV-OH) : -0.046

Just so you know, measured BI for CC[C@H](C)[C@H](NC(=O)[C@H](CCC(N)=O)NC(=O)[C@@H](NC(=O)[C@H](Cc1c[nH]cn1)NC(=O)[C@H](CCC(N)=O)NC(=O)[C@H](CC(=O)O)NC(=O)[C@H](CCC(=O)O)NC(=O)[C@H](CC(=O)O)NC(=O)[C@H](Cc1ccccc1)NC(=O)[C@@H]1CCCN1C(=O)CCC(=O)NCCCOCCOCCOCCCNC(=O)CCCC[C@@H]1SC[C@@H]2NC(=O)N[C@@H]21)[C@@H](C)O)C(=O)N[C@H](C(=O)N[C@@H](CCCCN)C(=O)N[C@H](C(=O)O)C(C)C)[C@@H](C)O [PTEN_13] ({X1-Suc}-PFDEDQHTQITKV-OH) came out at -0.074

Proceed to the following item.
Please fill in: BI reported for CC[C@H](C)[C@H](NC(=O)[C@H](CCC(N)=O)NC(=O)[C@@H](NC(=O)[C@H](Cc1c[nH]cn1)NC(=O)[C@H](CCC(N)=O)NC(=O)[C@H](CC(=O)O)NC(=O)[C@H](CCC(=O)O)NC(=O)[C@H](CC(=O)O)NC(=O)CCC(=O)NCCCOCCOCCOCCCNC(=O)CCCC[C@@H]1SC[C@@H]2NC(=O)N[C@@H]21)[C@@H](C)O)C(=O)N[C@H](C(=O)N[C@@H](CCCCN)C(=O)N[C@H](C(=O)O)C(C)C)[C@@H](C)O [PTEN_11] = -0.033

###

For each of the molecules below, state its BI.
- System: 266 human PDZ domains (PDZome)
- Assay method text: Holdup assay (chromatographic retention, PDZome-binding profile, BI)
- Parameters: key: binding intensity: 0.00 = no binding, 1.00 = maximal binding
- Conditions: PDZ domain PDLIM4-1
*1 amine or outer side, *2 acyl side, *3 side chain or, on linkers, in order; H or OH if unused. Where a SMILES comes first, the peptide text is derived from it. The star is where a group is joined. X1 = O=C(CCCC[C@@H]1SC[C@@H]2NC(=O)N[C@@H]21)NCCCOCCOCCOCCCN*; Suc = O=C(CCC(=O)[*:2])[*:1]

Here is how some molecules turned out for BI.
Given item CC[C@H](C)[C@H](NC(=O)[C@H](CCC(N)=O)NC(=O)[C@@H](NC(=O)[C@H](Cc1c[nH]cn1)NC(=O)[C@H](CCC(N)=O)NC(=O)[C@H](CC(=O)O)NC(=O)[C@H](CCC(=O)O)NC(=O)[C@H](CC(=O)O)NC(=O)CCC(=O)NCCCOCCOCCOCCCNC(=O)CCCC[C@@H]1SC[C@@H]2NC(=O)N[C@@H]21)[C@@H](C)O)C(=O)N[C@H](C(=O)N[C@@H](CCCCN)C(=O)N[C@H](C(=O)O)C(C)C)[C@@H](C)O [PTEN_11] , the value recorded as its BI is -0.02

So, CC[C@H](C)[C@H](NC(=O)[C@H](CCC(N)=O)NC(=O)[C@@H](NC(=O)[C@H](Cc1c[nH]cn1)NC(=O)[C@H](CCC(N)=O)NC(=O)[C@H](CC(=O)O)NC(=O)[C@H](CCC(=O)O)NC(=O)[C@H](CC(=O)O)NC(=O)CCC(=O)NCCCOCCOCCOCCCNC(=O)CCCC[C@@H]1SC[C@@H]2NC(=O)N[C@@H]21)[C@@H](C)O)C(=O)N[C@H](C(=O)N[C@@H](CCCNC(=N)N)C(=O)N[C@H](C(=O)O)C(C)C)[C@@H](C)O [PTEN_KR] ({X1-Suc}-DEDQHTQITRV-OH) ? Its BI was -0.087

Lab note: CC[C@H](C)[C@H](NC(=O)[C@H](CCC(N)=O)NC(=O)[C@@H](NC(=O)[C@H](Cc1c[nH]cn1)NC(=O)[C@H](CCC(N)=O)NC(=O)[C@H](CC(=O)O)NC(=O)[C@H](CCC(=O)O)NC(=O)[C@H](CC(=O)O)NC(=O)CCC(=O)NCCCOCCOCCOCCCNC(=O)CCCC[C@@H]1SC[C@@H]2NC(=O)N[C@@H]21)[C@@H](C)O)C(=O)N[C@H](C(=O)N[C@@H](CCCCNC(C)=O)C(=O)N[C@H](C(=O)O)C(C)C)[C@@H](C)O [PTEN_Ac] gave BI of -0.03

New cases:
# BI (molecule: CC[C@H](C)[C@H](NC(=O)[C@H](CCC(N)=O)NC(=O)[C@@H](NC(=O)[C@H](Cc1c[nH]cn1)NC(=O)[C@H](CCC(N)=O)NC(=O)[C@H](CC(=O)O)NC(=O)[C@H](CCC(=O)O)NC(=O)[C@H](CC(=O)O)NC(=O)[C@H](Cc1ccccc1)NC(=O)[C@@H]1CCCN1C(=O)CCC(=O)NCCCOCCOCCOCCCNC(=O)CCCC[C@@H]1SC[C@@H]2NC(=O)N[C@@H]21)[C@@H](C)O)C(=O)N[C@H](C(=O)N[C@@H](CCCCN)C(=O)N[C@H](C(=O)O)C(C)C)[C@@H](C)O [PTEN_13] ({X1-Suc}-PFDEDQHTQITKV-OH) ) is 0.003
